Target: RUNX1 (UniProt Q01196)
Sequence (Q01196 whole entry): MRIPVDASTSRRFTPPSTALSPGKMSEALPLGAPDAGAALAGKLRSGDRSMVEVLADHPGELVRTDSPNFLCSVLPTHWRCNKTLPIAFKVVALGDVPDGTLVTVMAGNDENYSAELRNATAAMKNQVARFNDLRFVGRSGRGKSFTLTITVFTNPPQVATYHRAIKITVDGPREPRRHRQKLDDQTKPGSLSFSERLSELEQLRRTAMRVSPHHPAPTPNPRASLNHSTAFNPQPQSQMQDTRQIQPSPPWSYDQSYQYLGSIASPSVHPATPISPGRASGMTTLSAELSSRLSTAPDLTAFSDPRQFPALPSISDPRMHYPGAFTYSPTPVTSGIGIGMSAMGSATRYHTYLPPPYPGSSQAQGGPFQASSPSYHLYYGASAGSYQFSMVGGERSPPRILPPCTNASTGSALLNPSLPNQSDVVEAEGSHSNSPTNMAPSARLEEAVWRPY
Assay: RUNX1 binding intensity (PBM fluorescence), RUNX1 alone (arbitrary fluorescence units); higher = stronger binding
Settings: RUNX1 concentration 2 nM; ETS1 concentration 0 nM
The full ranking holds about 4,000 sequences; the median of “arbitrary fluorescence units” is about 830, and the highest 2% start at about 6,500. For the sample, the highest values were picked, then their nearest neighbours and some sequences at random.
property-label: RUNX1 binding intensity
Simply state the number, no unit and no words.

| sequence-string | observed-measurement |
| --- | --- |
| CCGAGTGGCGGTTGTTTCAAGATGGCGGAGGTGGCA | 789 |
| CTCAGCCCACCGCTGCGCGGCCGAAAGTCGGAGGTT | 760 |
| CACCCCGCCTCTGCGGGACCACTTCAGGCGCCTTCT | 876 |
| AGGCTGTTGTGGGTTGCGCCGCTTCGGAGGTGGGAG | 846 |
| GTCGCCGGGATCACCGCAAACGCTTGCTGCTTGCGC | 1190 |
| GAGGAGGAGGTGCGCTGGCTGTTCTGCTGCGGGCCG | 704 |
| CGGCCCCCGGGGTGGTTAGCGCTTACGGGGTCGAAG | 714 |
| ACCCCGAAAGTGTGGGCGCGGCTGCGGTTTAACCCG | 7200 |
| CGACTGGAACCACTCTGAGGCGCTGCCGCAGACACC | 1040 |
| ACGCCCGCTGACCACACTGGCGACGTCCCTCTCTGT | 1400 |

Query (sequence): CATGACCTCCTCGCACAAGAATGCGGGGGTGGGGGT ; field requested: RUNX1 binding intensity
1050

ATGCCAAGGGACCTCCCTCCACAACCGCCCCCAGCT , same question.
930
